Tested on: SW-620 colon
Method Description: NCI-60 one-dose screen, 48 h (100 = growth as untreated, 0 = no growth, -100 = all killed)
Run Parameters: 10 µM unless noted
Compounds without any hit were thinned out: in the full panel of roughly 83,000, 20% have a hit.
Record Met whenever growth is at 40% or higher; record Not met when lower.

Reference set (8 entries):
CCNc1cc(S(=O)(=O)O)ccc1C : Met
COC(=O)c1ccc(NC(N)=NCC(C)(C)COc2ccc(C(F)(F)F)cc2)nc1 : Not met
O=C(Cn1c2ccccc2c2ccncc21)N/N=C/c1c[nH]c2ccccc12 : Not met
CC(C)(CCN=C(N)Nc1ccccn1)c1ccc(C(F)(F)F)cc1 : Not met
O=C1OC(=O)C2C3CC(c4ccccc43)C12 (stereo not given) : Met
COc1ccc(-c2nnc(SCC(=O)N3CCN(c4cc5c(cc4F)c(=O)c(C(=O)O)cn5C4CC4)CC3)o2)cc1OC : Met
COc1ccc(/C=C/C(=O)c2ccc(Oc3ncnc4ccccc34)cc2)cc1OC : Not met
Cc1cn([C@]2(CF)O[C@H](CO)C2C)c(=O)[nH]c1=O (stereo not given in full) : Met

Now look at this one.
Qu. Does the reported growth for CC(=O)c1ccc2c(c1)C1C=CCC1[C@H](c1cc3c(cc1Br)OCO3)N2 (stereo not given in full) fall at or above the 40% mark?
Ans. Not met

====

Tested on: SK-MEL-28 melanoma
Method Description: NCI-60 one-dose screen, 48 h
Run Parameters: 10 µM unless noted
The panel holds about 83,000 compounds, 20% with a hit somewhere; the sample as a whole holds those more often. Calls of active or inactive are those of the source. The calls were made as follows: active = growth percent below 10; inactive = the rest.
Your reply should match one of these outcome classes. t for active, f for inactive

Reference set (4 entries):
O=c1c2ccccc2sc2c(N3CCCC3)nc3ccccc3c12 : f
CCn1cc(C(=O)O)c(=O)c2cc(F)c(N3CCN(CC(=O)Nc4ccc(C(C)=O)cc4)CC3)cc21 : f
O=S(=O)(O)c1ccc(F)cc1 : f
C=C1C(=O)O[C@H]2[C@H]1CC/C(COC(=O)c1cccc3ccccc13)=C\CC[C@@]1(C)O[C@@H]21 : t

Now look at this one.
Qu. What did this assay record as the result for `COC1=C(OC)C(=O)C=CC1=O` ?
Ans. f

====

Tested on: LOX IMVI melanoma
Method Description: NCI-60 one-dose screen, 48 h (100 = growth as untreated, 0 = no growth, -100 = all killed)
Run Parameters: 10 µM unless noted
The panel holds about 83,000 compounds, 20% with a hit somewhere; the sample as a whole holds those more often.
Mark yes only when growth stays strictly below 50%. Values equal to the cut-off are no.

Reference set (2 entries):
CC(C)(C)OC(=O)NCc1cccc(N=C=S)c1 : yes
CC(C(C(=O)N1CCCCC1)N1CCCCC1)N1CCCCC1 (configuration not stated) : no

Now look at this one.
Qu. Strictly below 50%: is that where growth of `NC(=O)C1=C[C@H]2[C@H]3C=C[C@@]2(O)C(=O)O[C@@H]3O1` sits?
Ans. yes

====

Test system: HT29 colon
Method Description: NCI-60 one-dose screen, 48 h
Run Parameters: 10 µM unless noted
Compounds without any hit were thinned out: in the full panel of roughly 83,000, 20% have a hit. Activity calls are given as the source filed them. How the source made its calls: active means growth percent below 10; inactive means the rest.
Your reply should match one of these outcome classes. 1.0 (active), 0.0 (inactive)

NS(=O)(=O)c1ccc(CCN2C(=O)/C(=C\c3ccc(Cl)cc3)C=C2c2ccc(Oc3ccccc3)cc2)cc1 : 0.0
CC[C@H]1[C@@H]2C=C[C@@H]3[C@H]4C/C=C\C(=O)NCCC[C@@H]5NC(=O)/C(=C(O)/C=C/[C@@H]4C[C@@H]3[C@H]2C[C@H]1C)C5=O : 0.0
CC(C)Cn1cnc2c3ccccc3nc(NCn3nc(-c4cc(Cl)cc(Cl)c4Cl)oc3=S)c21 : 0.0
Nc1nccc2c1ccn2-c1ccc(NC(=O)Nc2cccc(C(F)(F)F)c2)cc1 : 0.0
CCn1cc(C(=O)O)c(=O)c2cc(F)c(N3CCN(CC(=O)Nc4ccc(C(C)=O)cc4)CC3)cc21 : 0.0

Qu. What did this assay record as the result for `O=C(Cn1c2ccccc2c2ccncc21)N/N=C/c1c[nH]c2ccccc12` ?
Ans. 0.0

Qu. What did this assay record as the result for `CC(=O)Cc1cccnc1` ?
Ans. 0.0

Qu. What did this assay record as the result for `Nc1ccc(S(=O)(=O)Nc2cc(I)cc(I)c2)cc1` ?
Ans. 0.0

Qu. What did this assay record as the result for `CCCCOc1nc2ccc(Cl)cc2cc1/C=C/C(=O)/C=C/c1ccc(OC)cc1` ?
Ans. 0.0

Qu. What did this assay record as the result for `CCn1cc(/C=C2\Oc3cc(OCC#N)ccc3C2=O)c2cc(OC)ccc21` ?
Ans. 1.0

Qu. What did this assay record as the result for COc1cc(NC(C)CCCN2C(=O)c3ccccc3C2=O)c2nccc(C)c2c1OC (stereo not given) ?
Ans. 0.0

Qu. What did this assay record as the result for `O=C(Nc1ccc(-n2ccc3c(NC(=O)c4ccccc4)nccc32)cc1)c1ccc(Cl)c(C(F)(F)F)c1` ?
Ans. 1.0

Qu. What did this assay record as the result for `COC(=O)c1oc2c(C(C)=O)c(OCCCN(C)C)ccc2c1C` ?
Ans. 0.0

Qu. What did this assay record as the result for `COc1ccc(-c2nn(-c3ccc(NC(=O)Nc4ccc(Cl)c(C(F)(F)F)c4)cc3)cc2-c2ccncc2)cc1Cl` ?
Ans. 1.0

Qu. What did this assay record as the result for CC(C)(C)NC(C1=CC(C)(C)c2ccccc2C1=O)c1ccccc1 (stereo not given) ?
Ans. 1.0

Qu. What did this assay record as the result for COc1cccc(C2CC(c3cc(OC)c(OC)c(OC)c3)=NN2)c1 (stereo not given) ?
Ans. 0.0

Qu. What did this assay record as the result for `C[C@H]1C=C(C[C@@H](O)CC#CC#CCCCCC[C@@H](O)[C@H]2CCC(=O)O2)C(=O)O1` ?
Ans. 0.0

Qu. What did this assay record as the result for `Cc1nssc1=S` ?
Ans. 0.0

Qu. What did this assay record as the result for `Cc1c(F)cccc1NC(=O)c1sc2nc3c(cc2c1N)CCCCC3` ?
Ans. 0.0

Qu. What did this assay record as the result for `Nc1nc(Nc2ccc(OCc3cccc(F)c3)cc2)c2c(n1)[nH]c1ccc(O)cc12` ?
Ans. 1.0
